Values compiled from ChEMBL document CHEMBL4321867.

# procedure summary: in vitro
# condition parameters: rat, hepatocytes
measurement kind: hepatocyte CLint at 1 µM (µL/min/1e6 cells)
Give a bare numeral; the unit µL/min/1e6 cells is implied.

Take a look at these entries with their results.
CN1CC(C#CC#Cc2cc3n(c2)C(=O)N(CC[C@](C)(C(=O)NO)S(C)(=O)=O)C3)C1: 8.6
C[C@@](CCN1Cc2cc(C#CC#CC3(CO)CC3)cn2C1=O)(C(=O)NO)S(C)(=O)=O: 8.5

Query (compound): `C[C@@](CCN1Cc2cc(C#CC#C[C@H]3C[C@]3(F)CO)cn2C1=O)(C(=O)NO)S(C)(=O)=O` ; field requested: hepatocyte CLint at 1 µM 13

Next record, please: `C[C@@](CCN1Cc2cc(C#CC#C[C@@H]3C[C@@]3(F)CO)cn2C1=O)(C(=O)NO)S(C)(=O)=O` 13

---

Each record here notes measured logD.
# procedure summary: physchem
# condition parameters: n-octanol/phosphate buffer, pH 7.4
The response must contain the number and no unit.

C[C@@](CCN1Cc2cc(C#CC#CC3CNC3)cn2C1=O)(C(=O)NO)S(C)(=O)=O: -1
CNC1(C#CC#Cc2cc3n(c2)C(=O)N(CC[C@](C)(C(=O)NO)S(C)(=O)=O)C3)CC1: 1.4

Now examine the next entry.
Query (compound): `CC(=O)N1CC(C#CC#Cc2cc3n(c2)C(=O)N(CC[C@](C)(C(=O)NO)S(C)(=O)=O)C3)C1` ; field requested: logD 0.3

---

# procedure summary: in vitro
# condition parameters: rat, liver microsomes
measurement kind: microsomal CLint at 1 µM (µL/min/mg)
Give a bare numeral; the unit µL/min/mg is implied.

C[C@@](CCN1Cc2cc(C#CC#CC3CN(CCO)C3)cn2C1=O)(C(=O)NO)S(C)(=O)=O: 198

Query (molecule): `C[C@@](CCN1Cc2cc(C#CC#CC3(CO)CC3)cn2C1=O)(C(=O)NO)S(C)(=O)=O` ; field requested: microsomal CLint at 1 µM 24

---

Each record here notes measured AUC(0-t) at 24 h.
# procedure summary: in vivo
# condition parameters: mouse, sc, 150 mg/kg
Give a bare numeral; the unit ng·h/mL is implied.

CC(C)(O)CN1CC(C#CC#Cc2cc3n(c2)C(=O)N(CC[C@](C)(C(=O)NO)S(C)(=O)=O)C3)C1: 47300
C[C@@](CCN1Cc2cc(C#CC#C[C@H]3C[C@@H]3[C@@H](O)CO)cn2C1=O)(C(=O)NO)S(C)(=O)=O: 347000
C[C@@](CCN1Cc2cc(C#CC#CC3(N)CC3)cn2C1=O)(C(=O)NO)S(C)(=O)=O: 44700
C[C@@](CCN1Cc2cc(C#CC#C[C@@H]3C[C@@]3(F)CO)cn2C1=O)(C(=O)NO)S(C)(=O)=O: 236000
C[C@@](CCN1Cc2cc(C#CC#CC3(CO)CC3)cn2C1=O)(C(=O)NO)S(C)(=O)=O: 89500
CN1CC(C#CC#Cc2cc3n(c2)C(=O)N(CC[C@](C)(C(=O)NO)S(C)(=O)=O)C3)C1: 52900
C[C@@](CCN1Cc2cc(C#CC#CC3CN(CCO)C3)cn2C1=O)(C(=O)NO)S(C)(=O)=O: 63200

Now examine the next entry.
Query (compound): `C[C@@](CCN1Cc2cc(C#CC#CC3CN(CCF)C3)cn2C1=O)(C(=O)NO)S(C)(=O)=O` ; field requested: AUC(0-t) at 24 h 49100

---

# System: Serratia marcescens
# procedure summary: microbe, parasite or virus in culture
measurement kind: MIC90 (µg/mL)
Give a bare numeral; the unit µg/mL is implied.

Take a look at these entries with their results.
C[C@@](CCN1Cc2cc(C#CC#CC3CN(CCO)C3)cn2C1=O)(C(=O)NO)S(C)(=O)=O: 1
C[C@@](CCN1Cc2cc(C#CC#C[C@@H]3C[C@@]3(F)CO)cn2C1=O)(C(=O)NO)S(C)(=O)=O: 1
C[C@@](CCN1Cc2cc(C#CC#C[C@H]3C[C@@H]3[C@@H](O)CO)cn2C1=O)(C(=O)NO)S(C)(=O)=O: 0.5

Now examine the next entry.
Query (molecule): `C[C@@](CCN1Cc2cc(C#CC#CC3CN(CCF)C3)cn2C1=O)(C(=O)NO)S(C)(=O)=O` ; field requested: MIC90 0.25

---

# Tested on: Klebsiella oxytoca
# procedure summary: microbe, parasite or virus in culture
Each record here notes measured MIC90.
Give a bare numeral; the unit µg/mL is implied.

Take a look at these entries with their results.
C[C@@](CCN1Cc2cc(C#CC#CC3CN(CCF)C3)cn2C1=O)(C(=O)NO)S(C)(=O)=O: 0.125
CN(C)c1cc(NC(=O)CNC(C)(C)C)c(O)c2c1C[C@H]1C[C@H]3[C@H](N(C)C)C(O)=C(C(N)=O)C(=O)[C@@]3(O)C(O)=C1C2=O: 0.5
C[C@@](CCN1Cc2cc(C#CC#CC3CN(CCO)C3)cn2C1=O)(C(=O)NO)S(C)(=O)=O: 4

Now examine the next entry.
Query (molecule): `C[C@@](CCN1Cc2cc(C#CC#C[C@@H]3C[C@@]3(F)CO)cn2C1=O)(C(=O)NO)S(C)(=O)=O` ; field requested: MIC90 4

---

# Test system: UDP-3-O-acyl-N-acetylglucosamine deacetylase (Escherichia coli K-12), P0A725 [C125S]
# Sequence (P0A725 whole entry C125S): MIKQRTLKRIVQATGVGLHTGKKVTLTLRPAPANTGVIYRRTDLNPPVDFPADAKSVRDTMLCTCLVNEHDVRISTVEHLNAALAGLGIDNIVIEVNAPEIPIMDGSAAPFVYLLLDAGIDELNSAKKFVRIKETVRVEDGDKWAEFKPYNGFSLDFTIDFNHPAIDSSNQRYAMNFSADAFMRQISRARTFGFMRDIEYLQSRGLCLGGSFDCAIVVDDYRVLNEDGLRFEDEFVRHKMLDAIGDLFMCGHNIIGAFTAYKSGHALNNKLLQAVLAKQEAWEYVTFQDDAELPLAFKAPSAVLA
# condition parameters: 25 uM
Each record here notes measured deltaTm.
Give a bare numeral; the unit K is implied.

Query (molecule): `CN1CC(F)(C#CC#Cc2cc3n(c2)C(=O)N(CC[C@](C)(C(=O)NO)S(C)(=O)=O)C3)C1` ; field requested: deltaTm 8.1

Next record, please: `CN1CCC(C#CC#Cc2cc3n(c2)C(=O)N(CC[C@](C)(C(=O)NO)S(C)(=O)=O)C3)CC1` 10.6

Next record, please: `C[C@@](CCN1Cc2cc(C#CC#CC3CN(C4COC4)C3)cn2C1=O)(C(=O)NO)S(C)(=O)=O` 10.5

Next record, please: `CN1CCC(F)(C#CC#Cc2cc3n(c2)C(=O)N(CC[C@](C)(C(=O)NO)S(C)(=O)=O)C3)CC1` 9.6

Next record, please: `C[C@@](CCN1Cc2cc(C#CC#CC3CN(CCO)C3)cn2C1=O)(C(=O)NO)S(C)(=O)=O` 9.7

Next record, please: `C[C@@](CCN1Cc2cc(C#CC#CC3CNC3)cn2C1=O)(C(=O)NO)S(C)(=O)=O` 8

Next record, please: `CN1CC(C#CC#Cc2cc3n(c2)C(=O)N(CC[C@](C)(C(N)=O)S(C)(=O)=O)C3)C1` 0

---

# System: UDP-3-O-acyl-N-acetylglucosamine deacetylase (Escherichia coli K-12), P0A725 [C125S]
# condition parameters: 25 uM
Each record here notes measured deltaTm.
Give a bare numeral; the unit K is implied.

Take a look at these entries with their results.
C[C@@](CCN1Cc2cc(C#CC#CCN3CCC(O)CC3)cn2C1=O)(C(=O)NO)S(C)(=O)=O: 9.5
CNC1(C#CC#Cc2cc3n(c2)C(=O)N(CC[C@](C)(C(=O)NO)S(C)(=O)=O)C3)CC1: 10.6
CC(C)N1CC(C#CC#Cc2cc3n(c2)C(=O)N(CC[C@](C)(C(=O)NO)S(C)(=O)=O)C3)C1: 9.6
C[C@@](CCN1Cc2cc(C#CC#CC3CCN(C4COC4)CC3)cn2C1=O)(C(=O)NO)S(C)(=O)=O: 11.1
CC(C)(O)CN1CC(C#CC#Cc2cc3n(c2)C(=O)N(CC[C@](C)(C(=O)NO)S(C)(=O)=O)C3)C1: 10.3
C[C@@](CCN1Cc2cc(C#CC#CC3(N)CC3)cn2C1=O)(C(=O)NO)S(C)(=O)=O: 10

Query (compound): `C[C@@](CCN1Cc2cc(C#CC#CC3(CN)CC3)cn2C1=O)(C(=O)NO)S(C)(=O)=O` ; field requested: deltaTm 9.6

Next record, please: `CN1CC(C#CC#Cc2cc3n(c2)C(=O)N(CC[C@](C)(C(=O)NO)S(C)(=O)=O)C3)C1` 8.9

---

# procedure summary: in vivo
# condition parameters: Wistar, rat, iv, 10 mg/kg
measurement kind: clearance at 24 h (mL/min/kg)
Give a bare numeral; the unit mL/min/kg is implied.

Take a look at these entries with their results.
C[C@@](CCN1Cc2cc(C#CC#CC3CN(CCF)C3)cn2C1=O)(C(=O)NO)S(C)(=O)=O: 38
C[C@@](CCN1Cc2cc(C#CC#C[C@H]3C[C@@H]3CO)cn2C1=O)(C(=O)NO)S(C)(=O)=O: 17
C[C@@](CCN1Cc2cc(C#CC#C[C@H]3C[C@@H]3[C@@H](O)CO)cn2C1=O)(C(=O)NO)S(C)(=O)=O: 3.1

Query (compound): `C[C@@](CCN1Cc2cc(C#CC#CC3(N)CC3)cn2C1=O)(C(=O)NO)S(C)(=O)=O` ; field requested: clearance at 24 h 29

Next record, please: `C[C@@](CCN1Cc2cc(C#CC#C[C@@H]3C[C@@]3(F)CO)cn2C1=O)(C(=O)NO)S(C)(=O)=O` 5.2

Next record, please: `CN1CC(C#CC#Cc2cc3n(c2)C(=O)N(CC[C@](C)(C(=O)NO)S(C)(=O)=O)C3)C1` 18
